Molecular target: AGEs (bovine serum albumin (BSA) incubated with a reducing sugar) (Bos taurus, UniProt P02769)
Sequence (P02769 25-607): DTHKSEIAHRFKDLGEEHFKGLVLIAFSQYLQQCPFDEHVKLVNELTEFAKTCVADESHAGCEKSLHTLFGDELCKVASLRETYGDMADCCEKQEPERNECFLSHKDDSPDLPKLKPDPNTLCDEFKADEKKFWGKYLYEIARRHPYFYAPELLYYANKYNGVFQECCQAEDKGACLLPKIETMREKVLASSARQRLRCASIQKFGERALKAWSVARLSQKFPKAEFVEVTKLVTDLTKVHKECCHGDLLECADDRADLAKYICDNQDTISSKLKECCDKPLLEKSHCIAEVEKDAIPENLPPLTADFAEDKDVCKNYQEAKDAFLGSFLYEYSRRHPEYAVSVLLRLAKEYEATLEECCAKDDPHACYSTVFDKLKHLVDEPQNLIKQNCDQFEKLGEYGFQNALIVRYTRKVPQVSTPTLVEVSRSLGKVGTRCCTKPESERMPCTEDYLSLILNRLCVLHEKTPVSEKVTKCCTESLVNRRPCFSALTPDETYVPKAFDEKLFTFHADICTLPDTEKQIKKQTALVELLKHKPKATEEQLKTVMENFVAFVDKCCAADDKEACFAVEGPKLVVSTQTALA
Assay: Reversion of the Maillard reaction: deglycation of AGEs prepared from bovine serum albumin and glucose, fluorescence read-out
Format: biochemical
Settings: characterized molecules, in particular at 1×10^−1% in water or DMSO; about 50° C., 3 weeks; fluorescence with active principle versus positive control (15 mM aminoguanidine)
Endpoint name: % deglycation
Form entry: enter the amount, then its unit.

• Cc1cn2c(=O)c3ccccc3nc2n2c(=O)c3ccccc3nc12 = 100%
• O=C(O)C=Cc1ccc(O)c(O)c1 [3,4-Dihydroxycinnamic acid] = 88%

Exercise: Consider the molecule CC(Cc1ccc(O)c(O)c1)C(C)Cc1ccc(O)c(O)c1 (centres unmarked) [Nordihydroguaiaretic acid] and give its recorded % deglycation.
Solution: 100%

Exercise: Consider the molecule Oc1cc(O)cc(O)c1 [1,3,5-Trihydroxybenzene (phloroglucinol), 1,3,5-Trihydroxybenzene] and give its recorded % deglycation.
Solution: 100%

====

Reported % deglycation values for a set of compounds
Target: AGEs (bovine serum albumin (BSA) incubated with a reducing sugar) (Bos taurus, UniProt P02769)
Test: Reversion of the Maillard reaction: deglycation of AGEs prepared from bovine serum albumin and glucose, fluorescence read-out
Type: biochemical
Details: characterized molecules, in particular at 1×10^−1% in water or DMSO; about 50° C., 3 weeks; fluorescence with active principle versus positive control (15 mM aminoguanidine)
Provide only the numeric value, understood in %.

- O=C1Cc2ccccc2N1 [Oxindole]: 100
- Cc1cc(C)c2c(c1O)C(=O)OC2 [7-Hydroxy-4,6-dimethyl phthalide]: 100
- O=C(O)Cc1ccc(O)c(O)c1 [3,4-Dihydroxyphenylacetic acid (DOPAC), 3,4-Dihydroxyphenylacetic acid]: 100

Exercise: Consider the compound O=c1cc(CO)occ1O [2-Hydroxymethyl-5-hydroxy-γ-pyrone] and give its recorded % deglycation.
Solution: 97

Exercise: Consider the compound COc1cc(C=CC(=O)O)cc(OC)c1O [3,5-Dimethoxy-4-hydroxycinnamic acid] and give its recorded % deglycation.
Solution: 100

Exercise: Consider the compound Cc1c(C)c2c(c(C)c1O)CCC(C)(C(=O)O)O2 (stereo not shown) and give its recorded % deglycation.
Solution: 100

Exercise: Consider the compound CNC(=O)Oc1ccc2c(c1)[C@]1(C)CCN(C)[C@@H]1N2C [Physostigmine] and give its recorded % deglycation.
Solution: 87

====

Target: AGEs (bovine serum albumin (BSA) incubated with a reducing sugar) (Bos taurus, UniProt P02769)
Experiment: Reversion of the Maillard reaction: deglycation of AGEs prepared from bovine serum albumin and glucose, fluorescence read-out
Format: biochemical
Conditions: characterized molecules, in particular at 1×10^−1% in water or DMSO; about 50° C., 3 weeks; fluorescence with active principle versus positive control (15 mM aminoguanidine)
Endpoint name: % deglycation
Form entry: enter the amount, then its unit.

Solved cases (2 shown):
• Oc1cc(O)c2c(c1)O[C@@H](c1ccc(O)c(O)c1)[C@H](O)C2 (relative stereo) [trans-3,3′,4′,5,7-Pentahydroxyflavane] = 100%
• Oc1ccc2cc[nH]c2c1 [Indole alcohol amine II, 6-Hydroxyindole] = 100%

Pending compound:
Exercise: Consider the compound Nc1ccc(O)cc1 and give its recorded % deglycation.
Solution: 100%

The measurements presented in this section are drawn from patent US20100203175A1.
